assay-system: rat EP4 (Rattus norvegicus)
Sequence (P43114 whole entry): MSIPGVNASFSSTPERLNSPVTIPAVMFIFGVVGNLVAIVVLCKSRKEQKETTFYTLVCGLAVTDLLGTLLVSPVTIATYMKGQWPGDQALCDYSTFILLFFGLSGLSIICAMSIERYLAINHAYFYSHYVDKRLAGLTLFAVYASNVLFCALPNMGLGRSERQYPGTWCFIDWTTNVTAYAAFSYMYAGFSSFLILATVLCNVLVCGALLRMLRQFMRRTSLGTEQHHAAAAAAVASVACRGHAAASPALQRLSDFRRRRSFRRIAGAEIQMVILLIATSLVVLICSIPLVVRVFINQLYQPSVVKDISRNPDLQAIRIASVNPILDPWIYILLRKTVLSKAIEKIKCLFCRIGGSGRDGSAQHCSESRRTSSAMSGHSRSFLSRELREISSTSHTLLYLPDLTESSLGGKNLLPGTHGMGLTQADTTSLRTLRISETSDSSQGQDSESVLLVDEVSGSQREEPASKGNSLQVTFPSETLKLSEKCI
test-protocol: Calcium flux assay, rat EP4

{"columns": ["compound", "IC50 (nM)"],
 "data": [
  ["C[C@H](NC(=O)c1c(Cc2cccc(C(F)(F)F)c2)sc2c1CCOC2)c1ccc(C(=O)O)cc1 [L001]", 14.2]
]}

---

assay-system: mouse EP4 (Mus musculus, UniProt P32240)
Sequence (P32240 whole entry): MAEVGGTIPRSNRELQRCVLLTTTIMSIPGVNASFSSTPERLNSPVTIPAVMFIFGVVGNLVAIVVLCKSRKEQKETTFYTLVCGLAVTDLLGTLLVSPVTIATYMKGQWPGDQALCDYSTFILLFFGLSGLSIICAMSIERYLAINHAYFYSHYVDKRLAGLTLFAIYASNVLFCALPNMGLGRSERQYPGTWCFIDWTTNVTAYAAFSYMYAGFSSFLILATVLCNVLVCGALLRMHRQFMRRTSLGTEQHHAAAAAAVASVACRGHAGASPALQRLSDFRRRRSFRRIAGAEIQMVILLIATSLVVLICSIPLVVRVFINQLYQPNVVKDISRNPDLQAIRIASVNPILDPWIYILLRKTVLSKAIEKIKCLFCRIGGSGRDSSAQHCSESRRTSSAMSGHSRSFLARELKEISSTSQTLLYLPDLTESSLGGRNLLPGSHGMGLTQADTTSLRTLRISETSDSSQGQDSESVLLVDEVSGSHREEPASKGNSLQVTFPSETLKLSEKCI
test-protocol: Calcium flux assay, mouse EP4
Protocol: Calcium flux assay was conducted as described in our previous study. Briefly, CHO-Gα16 cells were transfected, respectively, with human EP1, human EP2, human EP3, human EP4, monkey EP4, mouse EP4 and rat EP4 overexpression constructs using lipofectamine 2000 according to the manufacturer’s manual. […] The calcium flux was detected subsequently by a Flexstation® 3 Multi-Mode Microplate Reader (Molecular Devices, San Jose, CA, USA).
pIC50: −log10 of the molar value.

{"columns": ["given-smiles", "pIC50"],
 "data": [
  ["C[C@H](NC(=O)c1c(Cc2cccc(C(F)(F)F)c2)sc2c1CCOC2)c1ccc(C(=O)O)cc1", 8.49]
]}

Each recorded value in this set is attributed to paper PMC8879074.
